system: LOC_OS01G51400-cb002; assay: thermal shift delta Tm vs DMSO control; higher = stronger stabilization (binding); details: 12.5 µM; protein concentration 2 µM;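 also: purified Escherichia coli-expressed rice kinase domain construct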
Known thermal shift delta Tm of a selection of compounds
measured attribute: thermal shift delta Tm

compound=COc1ccc(Oc2cc(NCCC(F)(F)F)c3ncc(-c4ccc(C(=O)NC5CC5)c(C)c4)n3n2)c(F)c1F measured_attribute="thermal shift delta Tm" observed_value="0.75 °C"
compound="CCCCNc1ncc(-c2ccc(CN3CCOCC3)cn2)c(NC2CCC(O)CC2)n1 (stereo not given)" measured_attribute="thermal shift delta Tm" observed_value="0.2 °C"
compound=CC(C)n1ncnc1-c1cn2c(n1)-c1ccc(O[C@@H](C)C(N)=O)cc1OCC2 measured_attribute="thermal shift delta Tm" observed_value="0.1 °C"
compound=O=S(=O)(NCCNC/C=C/c1ccc(Br)cc1)c1cccc2cnccc12 measured_attribute="thermal shift delta Tm" observed_value="0.23 °C"
compound=CCc1cc(Nc2nccc(-c3c(-c4ccc(OC)c(C(=O)Nc5c(F)cccc5F)c4)nc4ccccn34)n2)c(OC)cc1N1CCC(N2CCN(S(C)(=O)=O)CC2)CC1 measured_attribute="thermal shift delta Tm" observed_value="0.3 °C"
compound="C[S+]([O-])c1ccc(-c2nc(-c3ccc(F)cc3)c(-c3ccncc3)[nH]2)cc1 (stereo not given)" measured_attribute="thermal shift delta Tm" observed_value="-0.08 °C"
compound=C=CC(=O)Nc1cccc(Oc2nc(Nc3ccc(N4CCN(C)CC4)cc3)ncc2Cl)c1 measured_attribute="thermal shift delta Tm" observed_value="1.75 °C"
compound=Cc1nc(NC(=O)N2CCC[C@H]2C(N)=O)sc1-c1ccnc(C(C)(C)C(F)(F)F)c1 measured_attribute="thermal shift delta Tm" observed_value="0.42 °C"
compound="COc1cc(F)c(F)c(Nc2ccc(I)cc2F)c1NS(=O)(=O)C1(C[C@H](O)CO)CC1 [Refametinib (RDEA119, Bay 86-9766)]" measured_attribute="thermal shift delta Tm" observed_value="0.02 °C"
compound="CN1CCN(c2ccc3nc(-c4c(N)c5c(F)cccc5[nH]c4=O)[nH]c3c2)CC1 [Dovitinib (TKI258) Lactate]" measured_attribute="thermal shift delta Tm" observed_value="1.02 °C"
compound=C[C@@H](NC(=O)c1ncnc(N)c1Cl)c1ncc(C(=O)Nc2cc(C(F)(F)F)c(Cl)cn2)s1 measured_attribute="thermal shift delta Tm" observed_value="0.56 °C"
compound=C[C@@H]1CN(CC(=O)Nc2ccc3c(c2)Cc2cccc(-c4cc(=O)cc(N5CCOCC5)o4)c2S3)C[C@H](C)O1 measured_attribute="thermal shift delta Tm" observed_value="0.05 °C"
compound=C=C[C@@](C)(/C=C/c1ccc(O)cc1)CCC=C(C)C measured_attribute="thermal shift delta Tm" observed_value="0.52 °C"
compound=Cc1ncc(CO)c(CO)c1O measured_attribute="thermal shift delta Tm" observed_value="0.06 °C"
compound=CC#CC(=O)N1CCC[C@H]1c1nc(-c2ccc(C(=O)Nc3ccccn3)cc2)c2c(N)nccn12 measured_attribute="thermal shift delta Tm" observed_value="-0.06 °C"
compound=O=c1cc(N2CCOCC2)oc2c(-c3ccc4c(c3)OCCO4)csc12 measured_attribute="thermal shift delta Tm" observed_value="0.47 °C"
compound=CCn1c(-c2nonc2N)nc2cnc(Oc3cccc(NC(=O)c4ccc(OCCN5CCOCC5)cc4)c3)cc21 measured_attribute="thermal shift delta Tm" observed_value="0.31 °C"
compound=C[C@@H]1CN(C(=O)c2ccc(NC(=O)c3cc(O[C@H](C)c4c(Cl)ccc(F)c4Cl)c(N)nn3)cc2)C[C@H](C)N1 measured_attribute="thermal shift delta Tm" observed_value="-0.19 °C"
compound=NC(=O)c1ccc2nc(-c3ccc(Oc4ccc(Cl)cc4)cc3)[nH]c2c1 measured_attribute="thermal shift delta Tm" observed_value="0.88 °C"
compound=COc1ccc(-c2nc(N3CCOCC3)c3sc(CN(C)c4ncc(C(=O)NO)cn4)cc3n2)cn1 measured_attribute="thermal shift delta Tm" observed_value="0.43 °C"
compound=C=CC(=O)Nc1cccc(Nc2nc(Nc3ccc(NC4CN(CCF)C4)cc3OC)ncc2C(F)(F)F)c1 measured_attribute="thermal shift delta Tm" observed_value="0.35 °C"
compound=O=c1c(-c2ccc(O)cc2)coc2cc(O)cc(O)c12 measured_attribute="thermal shift delta Tm" observed_value="0.12 °C"
compound=C=CC(=O)Nc1ccc2ncnc(Nc3cccc(Br)c3)c2c1 measured_attribute="thermal shift delta Tm" observed_value="0.29 °C"
compound=CS(=O)(=O)N1CCc2c(-c3cnc(N)nc3)nc(N3CCOCC3)nc21 measured_attribute="thermal shift delta Tm" observed_value="0.18 °C"
compound=O=S(=O)(c1cccc2c(I)cccc12)N1CCCNCC1 measured_attribute="thermal shift delta Tm" observed_value="0.24 °C"
compound=CC1(C)OCCn2c1nc1c(N3CCOCC3)nc(-c3cnc(N)nc3)nc12 measured_attribute="thermal shift delta Tm" observed_value="0.12 °C"
compound=CNC(=O)c1ccccc1Sc1ccc2c(/C=C/c3ccccn3)n[nH]c2c1 measured_attribute="thermal shift delta Tm" observed_value="0.04 °C"
compound=CCn1c2ccccc2c2cc(Nc3ccnc(NCCCN4CCOCC4)n3)ccc21 measured_attribute="thermal shift delta Tm" observed_value="0.13 °C"
compound=NC[C@@](O)(c1ccc(Cl)cc1)c1ccc(-c2cn[nH]c2)cc1 measured_attribute="thermal shift delta Tm" observed_value="0.36 °C"
compound=Cc1n[nH]c2ncc(C(=O)N3CCC[C@H]3c3ccc(Cl)cc3)cc12 measured_attribute="thermal shift delta Tm" observed_value="0.21 °C"
compound="Cc1cc(C(C)Nc2ccccc2)c2nc(N3CCOCC3)cc(=O)n2c1 (stereo not given)" measured_attribute="thermal shift delta Tm" observed_value="0.16 °C"
compound=COCCOc1cnc2ccn([C@H](C)c3nnc4c(F)cc(-c5cnn(C)c5)cn34)c(=O)c2c1 measured_attribute="thermal shift delta Tm" observed_value="0.32 °C"
compound="COc1cc2ncnc(Nc3ccc(F)c(Cl)c3)c2cc1OCCCN1CCOCC1 [Gefitinib (ZD1839)]" measured_attribute="thermal shift delta Tm" observed_value="0.02 °C"
compound=O=c1ccc2ccc(O)c(O)c2o1 measured_attribute="thermal shift delta Tm" observed_value="0.41 °C"
compound=C=CC(=O)Nc1cc(Nc2nccc(-c3cn(C)c4ccccc34)n2)c(OC)cc1N(C)CCN(C)C measured_attribute="thermal shift delta Tm" observed_value="0.43 °C"

----------
molecules and their reported thermal shift delta Tm
test system: LOC_OS01G02750-cb003; experiment: thermal shift delta Tm vs DMSO control; higher = stronger stabilization (binding); settings: 12.5 µM; protein concentration 2 µM
measured attribute: thermal shift delta Tm (°C)

structure_string=COc1cc2nccc(Oc3ccc(NC(=O)C4(C(=O)Nc5ccc(F)cc5)CC4)cc3)c2cc1OC measured_attribute="thermal shift delta Tm" observed_value=0.81
structure_string=Cc1cnc(Nc2ccc(OCCN3CCCC3)cc2)nc1Nc1cccc(S(=O)(=O)NC(C)(C)C)c1 measured_attribute="thermal shift delta Tm" observed_value=0.69
structure_string=Cc1cn(-c2cc(NC(=O)c3ccc(C)c(Nc4nccc(-c5cccnc5)n4)c3)cc(C(F)(F)F)c2)cn1 measured_attribute="thermal shift delta Tm" observed_value=0.56
structure_string=NC(=O)c1ccc(N(C(N)=O)c2c(F)cccc2F)nc1-c1ccc(F)cc1F measured_attribute="thermal shift delta Tm" observed_value=0.53
structure_string=C[C@]1(O)C[C@@H](c2nc(-c3ccc4ccc(-c5ccccc5)nc4c3)c3c(N)nccn32)C1 measured_attribute="thermal shift delta Tm" observed_value=-0.88
structure_string=CC(C)NC[C@@H](C(=O)N1CCN(c2ncnc3c2[C@H](C)C[C@H]3O)CC1)c1ccc(Cl)cc1 measured_attribute="thermal shift delta Tm" observed_value=0.42
structure_string=COC(=O)Nc1ccc(-c2nc(N3CCOCC3)c3cnn(C4CCN(C(=O)OC)CC4)c3n2)cc1 measured_attribute="thermal shift delta Tm" observed_value=0.7
structure_string=Cc1ccc(NC(=O)c2ccc(CN3CCN(C)CC3)cc2)cc1Nc1nc(-c2cccnc2)cs1 measured_attribute="thermal shift delta Tm" observed_value=0.48

----------
tested on: LOC_OS03G50450-cb001; assay: thermal shift delta Tm vs DMSO control; higher = stronger stabilization (binding); conditions: 12.5 µM; protein concentration 2 µM
# thermal shift delta Tm per record follows
measured attribute: thermal shift delta Tm

compound=OCCn1cc(-c2ccc3c(c2)CC/C3=N\O)c(-c2ccncc2)n1 measured_attribute="thermal shift delta Tm" observed_value="0.31 °C"
compound=CN(C)C[C@@H]1CCn2cc(c3ccccc32)C2=C(C(=O)NC2=O)c2cn(c3ccccc23)CCO1 measured_attribute="thermal shift delta Tm" observed_value="-0.45 °C"
compound="Cc1cc(Nc2ncnc3ccc(-c4ccc(CNCCS(C)(=O)=O)o4)cc23)ccc1Oc1ccn2ncnc2c1 [HER2-Inhibitor-1]" measured_attribute="thermal shift delta Tm" observed_value="0.76 °C"
compound="Cc1cn(-c2cc(NC(=O)c3ccc(C)c(Nc4nccc(-c5cccnc5)n4)c3)cc(C(F)(F)F)c2)cn1 [Nilotinib (AMN-107)]" measured_attribute="thermal shift delta Tm" observed_value="0.23 °C"
